Parameter: Herbicidal effects index number, Monochoria vaginalis. Scope: all listed entries.
Tested on: Monochoria vaginalis
Assay: Herbicidal activity by paddy field soil treatment (Test Example 1)
Format: in vivo
Design: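 index 0 to 10 in 10% steps of herbicidal effect with 10 meaning complete death and 0 below 10%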
Details: 1000 g of effective component per hectare, evaluated on day 21 after the treatment, criteria of Table 72
Lab note: jot the number down without any unit.

[
  {
    "COMPOUND": "CCc1ccc(-n2c(=O)c(C(=O)C3=C(O)CCCC3=O)nn(C)c2=O)nc1 [I-462]",
    "TARGET OR SYSTEM": "Monochoria vaginalis",
    "ASSAY RESULT": 10
  },
  {
    "COMPOUND": "Cc1cncc(-n2c(=O)c(C(=O)C3=C(O)CCCC3=O)nn(C)c2=O)c1 [I-278]",
    "TARGET OR SYSTEM": "Monochoria vaginalis",
    "ASSAY RESULT": 9
  },
  {
    "COMPOUND": "C#Cc1ccc(-n2c(=O)c(C(=O)C3=C(O)CCCC3=O)nn(C)c2=O)nc1 [I-463]",
    "TARGET OR SYSTEM": "Monochoria vaginalis",
    "ASSAY RESULT": 10
  }
]

Just so you know, measured Herbicidal effects index number, Monochoria vaginalis for Cn1nc(C(=O)C2=C(O)CCCC2=O)c(=O)n(-c2ccc(F)cn2)c1=O [I-184] came out at 10

Just so you know, measured Herbicidal effects index number, Monochoria vaginalis for Cn1nc(C(=O)C2=C(O)CC(C)(C)CC2=O)c(=O)n(-c2ccccc2)c1=O [VI-6] came out at 10

Just so you know, measured Herbicidal effects index number, Monochoria vaginalis for Cn1nc(C(=O)C2=C(O)CCCC2=O)c(=O)n(-c2cccc(C(F)(F)F)c2)c1=O [I-64] came out at 10

---

Parameter: herbicidal effect index, Amaranthus retroflexus. Scope: all listed entries.
Test system: A. retroflexus
Test: Herbicidal activity by field soil treatment (Test example 2)
Type: in vivo
Set-up: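 index 0 to 10 in 10% steps of herbicidal effect with 10 meaning complete death and 0 below 10%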
Conditions: 1000 g effective component per hectare, day 21 after the treatment

[
  {
    "SMILES DATA": "CC(C)N(c1ccccc1)n1c(=O)c(C(=O)O)nn(C)c1=O",
    "ASSAY RESULT": 7
  },
  {
    "SMILES DATA": "Cc1cccc(-n2c(=O)c(C(=O)C3=C(O)CCCC3=O)nn(C)c2=O)c1Cl",
    "ASSAY RESULT": 10
  },
  {
    "SMILES DATA": "COc1cc(Cl)cc(-n2c(=O)c(C(=O)C3=C(O)CCCC3=O)nn(C)c2=O)c1",
    "ASSAY RESULT": 10
  }
]

Just so you know, measured herbicidal effect index, Amaranthus retroflexus for "CC(C)c1ccccc1-n1c(=O)c(C(=O)C2=C(O)CCCC2=O)nn(C)c1=O" came out at 10

Just so you know, measured herbicidal effect index, Amaranthus retroflexus for "Cn1nc(C(=O)O)c(=O)n(-c2cc(Cl)c(Cl)c(Cl)c2)c1=O" came out at 10

---

Parameter: herbicidal effect index, Echinochloa crus-galli. Scope: all listed entries.
System: Echinochloa crus-galli
Test: Herbicidal activity by field soil treatment (Test example 2)
Assay type: in vivo
Parameters: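 index 0 to 10 in 10% steps of herbicidal effect with 10 meaning complete death and 0 below 10%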
Conditions: 1000 g effective component per hectare, day 21 after the treatment
Lab note: jot the number down without any unit.

[
  {
    "MOLECULE": "Cn1nc(C(=O)C2=C(O)CCCC2=O)c(=O)n(CC2CCCO2)c1=O (stereo not drawn)",
    "TARGET OR SYSTEM": "Echinochloa crus-galli",
    "ASSAY RESULT": 8
  },
  {
    "MOLECULE": "Cc1ccc(F)cc1-n1c(=O)c(C(=O)C2=C(O)CCCC2=O)nn(C)c1=O",
    "TARGET OR SYSTEM": "Echinochloa crus-galli",
    "ASSAY RESULT": 10
  },
  {
    "MOLECULE": "CC(C)N(c1ccccc1)n1c(=O)c(C(=O)O)nn(C)c1=O",
    "TARGET OR SYSTEM": "Echinochloa crus-galli",
    "ASSAY RESULT": 7
  },
  {
    "MOLECULE": "Cc1c(F)cccc1-n1c(=O)c(C(=O)C2=C(O)CCCC2=O)nn(C)c1=O",
    "TARGET OR SYSTEM": "Echinochloa crus-galli",
    "ASSAY RESULT": 10
  },
  {
    "MOLECULE": "Cn1nc(C(=O)C2=C(O)CCCC2=O)c(=O)n(-c2cccnc2Cl)c1=O",
    "TARGET OR SYSTEM": "Echinochloa crus-galli",
    "ASSAY RESULT": 9
  },
  {
    "MOLECULE": "COc1ccc(-n2c(=O)c(C(=O)C3=C(O)CCCC3=O)nn(C)c2=O)cc1Cl",
    "TARGET OR SYSTEM": "Echinochloa crus-galli",
    "ASSAY RESULT": 8
  }
]

Just so you know, measured herbicidal effect index, Echinochloa crus-galli for "COc1c(F)cc(-n2c(=O)c(C(=O)C3=C(O)CCCC3=O)nn(C)c2=O)cc1F" came out at 8

Just so you know, measured herbicidal effect index, Echinochloa crus-galli for "COc1cc(-n2c(=O)c(C(=O)C3=C(O)CCCC3=O)nn(C)c2=O)ccc1F" came out at 9

Just so you know, measured herbicidal effect index, Echinochloa crus-galli for "Cn1nc(C(=O)C2=C(O)CCCC2=O)c(=O)n(-c2ccc(C#N)cc2)c1=O" came out at 10

---

Tested on: Scirpus juncoides Rocxb.
Test: Herbicidal activity by paddy field soil treatment (Test Example 1)
Type: in vivo
Design: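 index 0 to 10 in 10% steps of herbicidal effect with 10 meaning complete death and 0 below 10%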
Conditions: applied on water surface, 1000 g of effective component per hectare, day 21 after the treatment
EXPERIMENTAL READOUT: herbicidal effect index, S. juncoides Rocxb.
Lab note: jot the number down without any unit.

Below are worked cases with known answers.
[
  {
    "SMILES DATA": "Cn1nc(C(=O)C2=C(O)CCCC2=O)c(=O)n(-c2cccnc2Cl)c1=O",
    "ASSAY RESULT": 9
  },
  {
    "SMILES DATA": "COc1c(Cl)cc(-n2c(=O)c(C(=O)C3=C(O)CCCC3=O)nn(C)c2=O)cc1Cl",
    "ASSAY RESULT": 10
  },
  {
    "SMILES DATA": "Cc1ccc(F)cc1-n1c(=O)c(C(=O)C2=C(O)CCCC2=O)nn(C)c1=O",
    "ASSAY RESULT": 10
  },
  {
    "SMILES DATA": "Cn1nc(C(=O)C2=C(O)CCCC2=O)c(=O)n(-c2cc(C(F)(F)F)cc(C(F)(F)F)c2)c1=O",
    "ASSAY RESULT": 10
  }
]

Just so you know, measured herbicidal effect index, S. juncoides Rocxb. for "COc1cc(-n2c(=O)c(C(=O)C3=C(O)CCCC3=O)nn(C)c2=O)ccc1C" came out at 10

Just so you know, measured herbicidal effect index, S. juncoides Rocxb. for "Cc1ccc(Cl)cc1-n1c(=O)c(C(=O)C2=C(O)CCCC2=O)nn(C)c1=O" came out at 10

Just so you know, measured herbicidal effect index, S. juncoides Rocxb. for "Cn1nc(C(=O)C2=C(O)CCCC2=O)c(=O)n(-c2ccc(Cl)c(Cl)c2)c1=O" came out at 10

Just so you know, measured herbicidal effect index, S. juncoides Rocxb. for "Cc1ccc(-n2c(=O)c(C(=O)C3=C(O)CCCC3=O)nn(C)c2=O)cc1" came out at 10

Just so you know, measured herbicidal effect index, S. juncoides Rocxb. for "CCc1ccccc1-n1c(=O)c(C(=O)C2=C(O)CCCC2=O)nn(C)c1=O" came out at 10

---

Parameter: herbicidal effect index, S. juncoides Rocxb.. Scope: all listed entries.
System: Scirpus juncoides Rocxb.
Test: Herbicidal activity by paddy field soil treatment (Test Example 1)
Assay type: in vivo
Parameters: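 index 0 to 10 in 10% steps of herbicidal effect with 10 meaning complete death and 0 below 10%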
Conditions: applied on water surface, 1000 g of effective component per hectare, day 21 after the treatment
Lab note: jot the number down without any unit.

[
  {
    "COMPOUND": "Cn1nc(C(=O)C2=C(O)CCCC2=O)c(=O)n(CC(=O)OC(C)(C)C)c1=O [I-294]",
    "ASSAY RESULT": 9
  }
]

Just so you know, measured herbicidal effect index, S. juncoides Rocxb. for Cn1nc(C(=O)C2=C(O)CCCC2=O)c(=O)n(-c2ccc(-c3ccccc3)cc2)c1=O [I-271] came out at 10

Just so you know, measured herbicidal effect index, S. juncoides Rocxb. for C#Cc1ccc(-n2c(=O)c(C(=O)C3=C(O)CCCC3=O)nn(C)c2=O)nc1 [I-463] came out at 10

Just so you know, measured herbicidal effect index, S. juncoides Rocxb. for Cc1ccc(C(F)(F)F)cc1-n1c(=O)c(C(=O)C2=C(O)CCCC2=O)nn(C)c1=O [I-284] came out at 10

Just so you know, measured herbicidal effect index, S. juncoides Rocxb. for Cn1nc(C(=O)C2=C(O)C(C)(C)CCC2=O)c(=O)n(-c2ccccc2)c1=O [VI-5] came out at 10

Just so you know, measured herbicidal effect index, S. juncoides Rocxb. for CC(C)n1c(=O)c(C(=O)C2=C(O)CCCC2=O)nn(C)c1=O [I-4] came out at 10

Just so you know, measured herbicidal effect index, S. juncoides Rocxb. for Cc1cc(C)nc(-n2c(=O)c(C(=O)O)nn(C)c2=O)n1 [V-360] came out at 10

Just so you know, measured herbicidal effect index, S. juncoides Rocxb. for Cc1cc(I)ccc1-n1c(=O)c(C(=O)C2=C(O)CCCC2=O)nn(C)c1=O [I-283] came out at 10

Just so you know, measured herbicidal effect index, S. juncoides Rocxb. for Cc1cc(C)c(-n2c(=O)c(C(=O)C3=C(O)CCCC3=O)nn(C)c2=O)c(C)c1 [I-472] came out at 8
